These data points were gathered from patent US9540343B2.

# assayExplanation: in vitro
# assayContext: human, uninfected MT-4 cells, CC50 (nM), same protocol as Test A, CellTiter-Glo

compound	CC50 at 5 days
NC(=O)c1cc(-c2cccnc2[C@H](Cc2cc(F)cc(F)c2)NC(=O)Cn2nc(C=O)c3c2C2CC(C3)C2)ccc1F [Example 96]	9620 nM
N#Cc1nn(CC(=O)N[C@@H](Cc2cc(F)cc(F)c2)c2ncccc2-c2ccc(F)c(C(N)=O)c2)cc1Br [Example 359]	25300 nM
NC(=O)c1cccc(-c2cccnc2[C@H](Cc2cc(F)cc(F)c2)NC(=O)Cc2ccccc2)c1 [Example 501]	39600 nM
CCC(C(=O)N[C@@H](Cc1cc(F)cc(F)c1)c1ncccc1-c1ccc(F)c(C(N)=O)c1)n1cnc2cc(C)c(C)cc21 (some centres unmarked) [Example 587C]	23000 nM
O=C(N[C@@H](Cc1cc(F)cc(F)c1)c1ncccc1-c1ccc(Cl)cc1)C(c1c[nH]c2ccc(F)cc12)C(F)(F)F (single isomer, unassigned) [Example 36F]	7200 nM
Cc1ccc2c(c1C)NC(=O)C2CC(=O)N[C@@H](Cc1cc(F)cc(F)c1)c1ncccc1-c1ccc(F)c(C(N)=O)c1 (some centres unmarked) [Example 221]	40500 nM
O=C1Cc2cc(-c3cccnc3[C@H](Cc3cc(F)cc(F)c3)NC(=O)Cn3nc(C(F)F)c4c3C(F)(F)C3CC43)ccc2N1 (some centres unmarked) [Example 400]	23300 nM
NC(=O)c1cc(-c2cccnc2[C@H](Cc2cc(F)cc(F)c2)NC(=O)Cn2cc(C=O)c(C(F)(F)F)n2)ccc1F [Example 296]	10800 nM
COc1ccc(-c2cccnc2[C@@H](Cc2ccccc2)NC(=O)Cc2c[nH]c3ccc(O)cc23)cc1 [Example 22]	45700 nM
O=C(Cn1nc(C(F)(F)F)c2c1CCCC2)N[C@@H](Cc1cc(F)cc(F)c1)c1ncccc1-c1cccc(C(=O)NC2CC2)c1 [Example 62]	9980 nM
NC(=O)c1cc(-c2cccnc2[C@H](Cc2cc(F)cc(F)c2)NC(=O)Cn2nc(C(F)(F)F)c3c2CCC2(C3)OCCO2)ccc1F [Example 468D]	> 53000 nM
O=C(Cn1nc(C(F)(F)F)c2c1CCCC2)N[C@@H](Cc1cc(F)cc(F)c1)c1ncncc1-c1ccc(Cl)cc1 [Example 351]	8600 nM
Cc1cc2[nH]cc(CC(=O)N[C@@H](Cc3cc(F)cc(F)c3)c3ncccc3-c3cccc(C(N)=O)c3)c2cc1OCc1ccccc1 [Example 536I]	8600 nM
NC(=O)c1ccc(-c2cccnc2[C@H](Cc2cc(F)cc(F)c2)NC(=O)Cc2c[nH]c3ccc(O)cc23)cc1 [Example 42]	> 53000 nM
COC1CN(C(=O)c2cc(C(C)C)n(CC(=O)N[C@@H](Cc3cc(F)cc(F)c3)c3ncccc3-c3ccc(F)c(C(N)=O)c3)n2)C1 [Example 576B]	> 53200 nM
CCOC(=O)c1nn(CC(=O)N[C@@H](Cc2cc(F)cc(F)c2)c2ncccc2-c2ccc(F)c(C(N)=O)c2)c2c1C1CCC2C1 (some centres unmarked) [Example 90F]	34600 nM
NC(=O)c1cc(-c2cccnc2[C@H](Cc2cc(F)cc(F)c2)NC(=O)Cn2nc(C(F)(F)F)c3c2CCNC3=O)ccc1F [Example 270C]	> 53200 nM
O=C(Cn1nc(C(F)(F)F)c2c1CCCC2)N[C@H](Cc1cc(F)cc(F)c1)c1ncncc1-c1ccc(Cl)cc1 [Example 383]	15500 nM
CS(=O)(=O)c1ccc(-c2cccnc2[C@H](Cc2cc(F)cc(F)c2)NC(=O)Cn2nc(C(F)(F)F)c3c2CCCC3)cc1 [Example 425]	15600 nM
NC(=O)c1cc(-c2cccnc2[C@H](Cc2cc(F)cc(F)c2)NC(=O)Cn2nc(C(F)F)c3c2C(F)(F)CCC3=O)ccc1F [Example 285G]	48500 nM
Cc1cc(=O)n(CC(=O)N[C@@H](Cc2cc(F)cc(F)c2)c2ncccc2-c2cccc(C(N)=O)c2)c2ccccc12 [Example 321]	29700 nM
NC(=O)c1cc(-c2cccnc2[C@H](Cc2cc(F)cc(F)c2)NC(=O)Cn2nc(C(F)(F)F)c3c2C2CC2C3O)ccc1F (some centres unmarked) [Example 457]	> 53200 nM
NC(=O)c1cc(-c2cccnc2[C@H](Cc2cc(F)cc(F)c2)NC(=O)[C@@H]2C[C@H](Oc3ccccc3)CN2)ccc1F [Example 165]	52500 nM
NC(=O)c1cc(-c2cccnc2[C@H](Cc2cccc(F)c2)NC(=O)CC2C(=O)Nc3ccc(F)cc32)ccc1F (some centres unmarked) [Example 253]	> 53200 nM
NC(=O)c1cc(-c2cccnc2[C@H](Cc2cc(F)cc(F)c2)NC(=O)Cc2c[nH]c3ccc(Br)cc23)ccc1F [Example 445]	10700 nM
NC(=O)c1cc(-c2cccnc2[C@H](Cc2cc(F)cc(F)c2)NC(=O)Cc2c[nH]c3cc(F)c(F)cc23)ccc1F [Example 533E]	19300 nM
